Tested on: K562
Assay: Inhibition of DNA synthesis in K562 cells assessed as [3H]thymidine incorporation after 24 hrs
Type: functional, cell-based
Conditions: Homo sapiens
property_measured: IC50

Worked set:
| test_smiles | assayed_target | IC50 |
| --- | --- | --- |
| CC(C)=CCC/C(C)=C/CC(C/C=C(\C)CNc1ccccc1C(=O)O)(P(=O)(O)O)P(=O)(O)O | K562 | > 100 µM |
| CC(C)=CCC/C(C)=C/CC(C/C=C(\C)CC/C=C(\C)CNc1ccccc1C(=O)O)(P(=O)(O)O)P(=O)(O)O | K562 | > 100 µM |

Prompt: Report IC50 for C/C(=C\CC(P(=O)(O)O)P(=O)(O)O)CC/C=C(\C)CNc1ccccc1C(=O)O please.
Response: > 100 µM
